Data credit: patent US20180030151A1

SYSTEM UNDER TEST: recombinant human TFPI (tissue factor pathway inhibitor) (human, UniProt P10646 29-304)
PROTOCOL SUMMARY: cell-based or functional assay
We begin with a simple list: items and their reported FXa assay OD, 2.5 nM Ab, 10 nM TFPI.
Answer with a bare number; do not write a unit.

BINDER	FXa assay OD, 2.5 nM Ab, 10 nM TFPI
clone 7 (antibody, V domains shown) VH: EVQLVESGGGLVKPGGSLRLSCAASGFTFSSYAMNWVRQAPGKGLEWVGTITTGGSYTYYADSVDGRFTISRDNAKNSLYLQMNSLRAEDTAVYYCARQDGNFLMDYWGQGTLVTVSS VL: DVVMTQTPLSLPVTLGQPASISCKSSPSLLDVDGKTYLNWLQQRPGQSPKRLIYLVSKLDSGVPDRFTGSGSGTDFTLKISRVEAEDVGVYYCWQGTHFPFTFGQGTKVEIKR	0.0675
clone 3 (antibody, V domains shown) VH: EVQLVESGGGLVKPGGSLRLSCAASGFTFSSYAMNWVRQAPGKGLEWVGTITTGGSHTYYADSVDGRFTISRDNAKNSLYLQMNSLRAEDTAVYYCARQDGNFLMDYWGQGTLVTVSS VL: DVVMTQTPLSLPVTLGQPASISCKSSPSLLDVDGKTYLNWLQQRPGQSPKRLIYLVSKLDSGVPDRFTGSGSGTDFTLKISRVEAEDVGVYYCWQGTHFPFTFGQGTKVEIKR	0.0825
clone 1023 (antibody, V domains shown, scFv on yeast at selection; human IgG4/kappa IgG as purified) VH: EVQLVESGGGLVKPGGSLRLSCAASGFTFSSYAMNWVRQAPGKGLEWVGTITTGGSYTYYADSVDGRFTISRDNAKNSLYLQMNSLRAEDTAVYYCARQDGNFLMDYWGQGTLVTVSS VL: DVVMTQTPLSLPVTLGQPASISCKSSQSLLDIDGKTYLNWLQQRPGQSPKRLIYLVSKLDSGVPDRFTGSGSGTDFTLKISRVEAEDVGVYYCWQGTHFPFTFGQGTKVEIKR	0.051
clone 1 (antibody, V domains shown) VH: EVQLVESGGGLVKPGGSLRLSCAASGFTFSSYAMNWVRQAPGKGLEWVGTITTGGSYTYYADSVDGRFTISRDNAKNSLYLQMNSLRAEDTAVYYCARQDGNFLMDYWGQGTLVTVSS VL: DVVMTQTPLSLPVTLGQPASISCKSSPSLLDSDGKTYLNWLQQRPGQSPKRLIYLVSKLDSGVPDRFTGSGSGTDFTLKISRVEAEDVGVYYCWQGTHFPFTFGQGTKVEIKR	0.048
clone 8 (antibody, V domains shown) VH: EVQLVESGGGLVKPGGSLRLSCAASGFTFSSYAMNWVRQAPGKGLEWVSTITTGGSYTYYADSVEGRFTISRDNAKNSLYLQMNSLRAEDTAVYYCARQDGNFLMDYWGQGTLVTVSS VL: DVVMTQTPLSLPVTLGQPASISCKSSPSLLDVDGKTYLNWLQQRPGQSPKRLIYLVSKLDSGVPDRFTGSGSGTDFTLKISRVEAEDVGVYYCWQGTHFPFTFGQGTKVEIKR	0.054

Query: Supply recorded FXa assay OD, 2.5 nM Ab, 10 nM TFPI for clone 10 (antibody, V domains shown) VH: EVQLVESGGGLVKPGGSLRLSCAASGFTFSSYAMNWVRQAPGKGLEWVSTITTGGSYTYYADSVQGRFTISRDNAKNSLYLQMNSLRAEDTAVYYCARQDGNFLMDYWGQGTLVTVSS VL: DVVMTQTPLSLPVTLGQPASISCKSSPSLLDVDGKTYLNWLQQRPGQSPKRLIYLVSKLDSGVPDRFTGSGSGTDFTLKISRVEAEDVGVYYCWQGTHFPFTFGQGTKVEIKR here.
Response: 0.073

Query: Supply recorded FXa assay OD, 2.5 nM Ab, 10 nM TFPI for clone 2 (antibody, V domains shown) VH: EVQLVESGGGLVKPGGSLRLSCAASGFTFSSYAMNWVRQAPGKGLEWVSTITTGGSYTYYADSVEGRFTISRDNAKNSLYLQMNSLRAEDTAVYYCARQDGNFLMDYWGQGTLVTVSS VL: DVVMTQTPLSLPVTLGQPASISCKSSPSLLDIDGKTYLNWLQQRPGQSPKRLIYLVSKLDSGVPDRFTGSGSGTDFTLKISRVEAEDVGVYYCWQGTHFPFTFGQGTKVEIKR here.
Response: 0.0625
